target_desc: ParB (Bacillus subtilis, UniProt P26497)
Sequence (P26497 whole entry): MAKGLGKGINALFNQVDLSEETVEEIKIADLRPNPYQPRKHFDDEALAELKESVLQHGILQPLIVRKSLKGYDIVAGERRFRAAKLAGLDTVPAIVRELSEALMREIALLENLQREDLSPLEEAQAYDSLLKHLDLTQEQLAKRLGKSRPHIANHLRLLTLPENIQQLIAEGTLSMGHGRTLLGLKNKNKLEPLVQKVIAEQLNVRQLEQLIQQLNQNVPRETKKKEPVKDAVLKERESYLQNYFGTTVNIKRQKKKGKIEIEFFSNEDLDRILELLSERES
reported_metric: Kd

IN: Kd for Nc1ccn([C@@H]2O[C@H](COP(=O)(O)OP(=O)(O)OP(=O)(O)O)[C@@H](O)[C@H]2O)c(=O)n1 [CTP] ?
OUT: 5 to 8 µM
